assay: CCK-8 cell viability assay, normal cell line; type: cell-based; conditions: human, BEAS-2B cells (normal cell line), BEAS-2B normal cell line, read-out: Cell viability (100%), 40 μM, 48 h, BEAS-2B
Measured quantity: viability at 48 h, 40 µM (%)
Reply numerically in %, unit not repeated.

// query viability at 48 h, 40 µM value for entry COc1cc2ncnc(Nc3ccc(F)c(Cl)c3)c2cc1OCCCN1CCOCC1 [Gefitinib, reference compound]
82.1

----------
A collection of compounds and their measured viability at 40 µM
tested on: SKOV3; assay: CCK-8 cell viability assay; type: cell-based; conditions: Homo sapiens, SK-OV-3, SKOV3, 40 μM, 48 h, read-out: Cell viability (100%), 40 μM, 48 h, SKOV3
Express it in %; write the number only.

Example results:
INSERT INTO assay_data (compound, readout_value) VALUES
  ('N#Cc1ccccc1Cn1cc(-c2cccc(C(=O)Nc3ccc4c(c3)NC(=O)CO4)c2)nn1 [Compound 13o]', 98.4),
  ('O=C1COc2ccc(NC(=O)c3cccc(-c4cn(-c5cccc(Cl)c5)nn4)c3)cc2N1 [Compound 14d]', 90.5),
  ('COc1cc2ncnc(Nc3ccc(F)c(Cl)c3)c2cc1OCCCN1CCOCC1 [Gefitinib, reference compound]', 84.2),
  ('O=C1COc2ccc(NC(=O)c3cccc(-c4cn(-c5ccc(C(F)(F)F)cc5)nn4)c3)cc2N1 [Compound 14a]', 103),
  ('O=C1COc2ccc(NC(=O)c3cccc(-c4cn(Cc5c(F)cccc5Cl)nn4)c3)cc2N1 [Compound 13e]', 85.8),
  ('O=C1COc2ccc(NC(=O)c3cccc(-c4cn(Cc5ccc(F)c(Cl)c5)nn4)c3)cc2N1 [Compound 13f]', 83.7);

Return reported viability at 40 µM; argument: O=C1COc2ccc(NC(=O)c3cccc(-c4cn(Cc5cc(Br)cc(Br)c5)nn4)c3)cc2N1 [Compound 13k]
135

Continue with O=C1COc2ccc(NC(=O)c3cccc(-c4cn(-c5ccccc5Cl)nn4)c3)cc2N1 [Compound 14e]
86.5

----------
Recorded measurements of viability at 40 µM, one per entry
test system: SKOV3; assay: CCK-8 cell viability assay; assay type: cell-based; settings: Homo sapiens, SK-OV-3, SKOV3, 40 μM, 48 h, read-out: Cell viability (100%), 40 μM, 48 h, SKOV3
Number in %, nothing else.

INSERT INTO results (molecule, study_system, readout_value) VALUES
  ('O=C1COc2ccc(NC(=O)c3cccc(-c4cn(Cc5cccc(Cl)c5)nn4)c3)cc2N1 [Compound 13g]', 'SKOV3', 109),
  ('O=C1COc2ccc(NC(=O)c3cccc(-c4cn(-c5ccccc5F)nn4)c3)cc2N1 [Compound 14c]', 'SKOV3', 57.2),
  ('O=C1COc2ccc(NC(=O)c3cccc(-c4cn(Cc5ccc(F)cc5Cl)nn4)c3)cc2N1 [Compound 13t]', 'SKOV3', 97.2),
  ('O=C1COc2ccc(NC(=O)c3cccc(-c4cn(-c5cc(Cl)ccc5F)nn4)c3)cc2N1 [Compound 14g]', 'SKOV3', 87.6),
  ('O=C1COc2ccc(NC(=O)c3cccc(-c4cn(Cc5ccc(C(F)(F)F)cc5)nn4)c3)cc2N1 [Compound 13p]', 'SKOV3', 104);

Entry O=C1COc2ccc(NC(=O)c3cccc(-c4cn(Cc5cc(Cl)ccc5F)nn4)c3)cc2N1 [Compound 13h] : reported viability at 40 µM = ?
89.7

Note, next up: O=C1COc2ccc(NC(=O)c3cccc(-c4cn(-c5cccc(Br)c5)nn4)c3)cc2N1 [Compound 14b]
98

Can you handle Cc1cc(C)cc(Cn2cc(-c3cccc(C(=O)Nc4ccc5c(c4)NC(=O)CO5)c3)nn2)c1 [Compound 13b] next?
115

----------
tested on: MCF-7; assay: CCK-8 cell viability assay; assay type: cell-based; conditions: Homo sapiens, MCF7, MCF-7, 40 μM, 48 h, read-out: Cell viability (100%), 40 μM, 48 h, MCF-7
Measured quantity: viability at 40 µM (%)
Expressed in %, but write only the number.

Can you look up the measured viability at 40 µM of O=C1COc2ccc(NC(=O)c3cccc(-c4cn(Cc5c(F)cccc5Cl)nn4)c3)cc2N1 [Compound 13e] for me?
120

Now consider N#Cc1ccc(F)cc1Cn1cc(-c2cccc(C(=O)Nc3ccc4c(c3)NC(=O)CO4)c2)nn1 [Compound 13d] and answer again.
137

Quick one: COc1cc2ncnc(Nc3ccc(F)c(Cl)c3)c2cc1OCCCN1CCOCC1 [Gefitinib, reference compound]
63.7

Next compound: O=C1COc2ccc(NC(=O)c3cccc(-c4cn(Cc5cc(Br)cc(Br)c5)nn4)c3)cc2N1 [Compound 13k]
141

Please do the same for O=C1COc2ccc(NC(=O)c3cccc(-c4cn(Cc5cc(Cl)ccc5F)nn4)c3)cc2N1 [Compound 13h] as well.
94.2

Now consider O=C1COc2ccc(NC(=O)c3cccc(-c4cn(-c5ccccc5Cl)nn4)c3)cc2N1 [Compound 14e] and answer again.
127

Now give it for O=C1COc2ccc(NC(=O)c3cccc(-c4cn(Cc5cccc(F)c5)nn4)c3)cc2N1 [Compound 13r] too.
122

// same read-out, input: O=C1COc2ccc(NC(=O)c3cccc(-c4cn(Cc5ccc(Br)cc5F)nn4)c3)cc2N1 [Compound 13l]
105

// query: O=C1COc2ccc(NC(=O)c3cccc(-c4cn(-c5ccccc5F)nn4)c3)cc2N1 [Compound 14c]
110

Item: O=C1COc2ccc(NC(=O)c3cccc(-c4cn(Cc5cc(F)c(F)c(F)c5)nn4)c3)cc2N1 [Compound 13c]
91.4

What do you have for O=C1COc2ccc(NC(=O)c3cccc(-c4cn(Cc5ccccc5Br)nn4)c3)cc2N1 [Compound 13q] ?
97.9

Another: O=C1COc2ccc(NC(=O)c3cccc(-c4cn(Cc5ccc(F)c(Cl)c5)nn4)c3)cc2N1 [Compound 13f]
85.5

Entry O=C1COc2ccc(NC(=O)c3cccc(-c4cn(Cc5cccc(C(F)(F)F)c5)nn4)c3)cc2N1 [Compound 13m] please
127

Now the same for O=C1COc2ccc(NC(=O)c3cccc(-c4cn(-c5cccc(Br)c5)nn4)c3)cc2N1 [Compound 14b]
114

Now the compound O=C1COc2ccc(NC(=O)c3cccc(-c4cn(-c5cc(Cl)ccc5F)nn4)c3)cc2N1 [Compound 14g]
45.5

Also O=C1COc2ccc(NC(=O)c3cccc(-c4cn(Cc5ccc(Br)cc5)nn4)c3)cc2N1 [Compound 13a] ?
107

----------
tested on: MCF-7; experiment: CCK-8 cell viability assay; type: cell-based; conditions: Homo sapiens, MCF7, MCF-7, 40 μM, 48 h, read-out: Cell viability (100%), 40 μM, 48 h, MCF-7
Measured quantity: viability at 40 µM (%)
Just the number please, in %, no unit attached.

Solved entries:
INSERT INTO assay_data (compound, readout_value) VALUES
  ('O=C1COc2ccc(NC(=O)c3cccc(-c4cn(Cc5ccc(C(F)(F)F)cc5)nn4)c3)cc2N1 [Compound 13p]', 113),
  ('N#Cc1ccccc1Cn1cc(-c2cccc(C(=O)Nc3ccc4c(c3)NC(=O)CO4)c2)nn1 [Compound 13o]', 103),
  ('O=C1COc2ccc(NC(=O)c3cccc(-c4cn(-c5ccc(Br)cc5F)nn4)c3)cc2N1 [Compound 14f]', 74.2),
  ('O=C1COc2ccc(NC(=O)c3cccc(-c4cn(Cc5cccc(Cl)c5)nn4)c3)cc2N1 [Compound 13g]', 105);

Can you share its viability at 40 µM? I mean this compound: O=C1COc2ccc(NC(=O)c3cccc(-c4cn(Cc5ccc(I)cc5)nn4)c3)cc2N1 [Compound 13s]
127

Try O=C1COc2ccc(NC(=O)c3cccc(-c4cn(-c5ccc(C(F)(F)F)cc5)nn4)c3)cc2N1 [Compound 14a] next.
101

----------
// values below are reported viability at 40 µM
test system: SKOV3; assay: CCK-8 cell viability assay; format: cell-based; details: Homo sapiens, SK-OV-3, SKOV3, 40 μM, 48 h, read-out: Cell viability (100%), 40 μM, 48 h, SKOV3
# output: numeric value plus its unit

// solved cases for viability at 40 µM follow
INSERT INTO assay_data (compound, study_system, measured_quantity, readout_value) VALUES
  ('O=C1COc2ccc(NC(=O)c3cccc(-c4cn(Cc5cc(F)c(F)c(F)c5)nn4)c3)cc2N1 [Compound 13c]', 'SKOV3', 'viability at 40 µM', '88.5%'),
  ('O=C1COc2ccc(NC(=O)c3cccc(-c4cn(Cc5cccc(C(F)(F)F)c5)nn4)c3)cc2N1 [Compound 13m]', 'SKOV3', 'viability at 40 µM', '126%'),
  ('O=C1COc2ccc(NC(=O)c3cccc(-c4cn(Cc5ccc(Br)cc5F)nn4)c3)cc2N1 [Compound 13l]', 'SKOV3', 'viability at 40 µM', '91.6%'),
  ('O=C1COc2ccc(NC(=O)c3cccc(-c4cn(Cc5cccc(F)c5)nn4)c3)cc2N1 [Compound 13r]', 'SKOV3', 'viability at 40 µM', '115%'),
  ('O=C1COc2ccc(NC(=O)c3cccc(-c4cn(Cc5c(Cl)cccc5Cl)nn4)c3)cc2N1 [Compound 13n]', 'SKOV3', 'viability at 40 µM', '89.3%'),
  ('O=C1COc2ccc(NC(=O)c3cccc(-c4cn(Cc5ccccc5Br)nn4)c3)cc2N1 [Compound 13q]', 'SKOV3', 'viability at 40 µM', '89.5%'),
  ('O=C1COc2ccc(NC(=O)c3cccc(-c4cn(Cc5ccc(Br)cc5)nn4)c3)cc2N1 [Compound 13a]', 'SKOV3', 'viability at 40 µM', '104%'),
  ('O=C1COc2ccc(NC(=O)c3cccc(-c4cn(Cc5ccc(I)cc5)nn4)c3)cc2N1 [Compound 13s]', 'SKOV3', 'viability at 40 µM', '118%'),
  ('O=C1COc2ccc(NC(=O)c3cccc(-c4cn(-c5ccc(Br)cc5F)nn4)c3)cc2N1 [Compound 14f]', 'SKOV3', 'viability at 40 µM', '79.8%'),
  ('O=C1COc2ccc(NC(=O)c3cccc(-c4cn(Cc5ccccc5F)nn4)c3)cc2N1 [Compound 13j]', 'SKOV3', 'viability at 40 µM', '92.7%');

So what's the measured viability at 40 µM for this one? O=C1COc2ccc(NC(=O)c3cccc(-c4cn(Cc5ccc(F)cc5)nn4)c3)cc2N1 [Compound 13i]
124%

Another compound to check: N#Cc1ccc(F)cc1Cn1cc(-c2cccc(C(=O)Nc3ccc4c(c3)NC(=O)CO4)c2)nn1 [Compound 13d]
120%
